- system.tested: GST-tagged GDP-loaded KRAS G12D (amin acids 1-188) (Homo sapiens, UniProt P01116, G12D)
- Sequence (P01116 1-188 isoform P01116-2 G12D): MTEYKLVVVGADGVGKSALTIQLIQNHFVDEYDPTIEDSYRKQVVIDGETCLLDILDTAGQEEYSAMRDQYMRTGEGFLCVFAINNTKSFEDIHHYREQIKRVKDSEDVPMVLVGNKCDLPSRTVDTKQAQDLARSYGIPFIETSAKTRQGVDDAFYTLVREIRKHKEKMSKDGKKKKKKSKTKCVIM
- test.name: KRAS G12D probe displacement assay (TR-FRET)
- conditions: Table 5; KRAS G12D 0.5 nM, biotinylated probe 2 4 nM
readout.kind: IC50 (nM)
Return type: number; implicit unit nM.

CNCC(C)N1CCCOc2nc(-c3cc(N)cc(Cl)c3C(F)(F)F)c(F)c3nc(OC[C@@]45CCCN4C[C@H](F)C5)nc1c23 (stereo partly shown) = 3.9
CNCCN1c2nc(OC[C@@]34CCCN3C[C@H](F)C4)nc3c(F)c(-c4cc(N)cc(Cl)c4C(F)(F)F)nc(c23)OCCC1C (stereo partly shown) = 0.43
CN(C)CCN1c2nc(OC[C@@]34CCCN3C[C@H](F)C4)nc3c(F)c(-c4cc(N)cc(Cl)c4C(F)(F)F)nc(c23)OCCC12COC2 = 0.65

With those in mind, consider the next molecule.
# query: IC50 of entry CN1c2nc(OC[C@@]34CCCN3C[C@H](F)C4)nc3c(F)c(-c4cc(N)cc(Cl)c4C(F)(F)F)nc(c23)OCCC12CC2
0.43
